The following binders are shown together with reported Mean % WT Binding values.
tgt: human CD33 G123A (human, UniProt P20138 18-364)
Sequence (P20138 18-364 G123A limits assumed): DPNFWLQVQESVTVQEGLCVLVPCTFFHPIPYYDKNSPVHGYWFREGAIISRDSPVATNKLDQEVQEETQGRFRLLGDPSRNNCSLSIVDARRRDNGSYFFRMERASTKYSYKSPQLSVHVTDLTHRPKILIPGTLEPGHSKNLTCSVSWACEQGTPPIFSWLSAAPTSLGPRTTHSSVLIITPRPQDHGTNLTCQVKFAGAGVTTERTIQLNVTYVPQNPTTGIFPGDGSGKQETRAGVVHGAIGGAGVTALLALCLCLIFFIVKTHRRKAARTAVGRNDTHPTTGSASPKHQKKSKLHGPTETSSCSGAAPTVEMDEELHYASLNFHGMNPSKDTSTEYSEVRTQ
protocol-notes: flow cytometry on HEK293-T, alanine scan
Respond with the bare value in % WT binding.

Check out these entries, answers already filled in.
binder: Refmab #3 (antibody, V domains shown, The alanine scan used IgG or Fab) VH: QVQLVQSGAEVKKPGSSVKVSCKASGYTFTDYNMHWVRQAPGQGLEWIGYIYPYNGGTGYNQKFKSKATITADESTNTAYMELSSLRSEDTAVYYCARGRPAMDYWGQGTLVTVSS VL: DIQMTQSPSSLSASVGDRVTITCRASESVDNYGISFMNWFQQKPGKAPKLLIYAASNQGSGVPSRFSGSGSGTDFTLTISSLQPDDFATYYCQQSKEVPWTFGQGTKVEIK
Mean % WT Binding (% WT binding): 292

binder: Refmab #2 (antibody, V domains shown, The alanine scan used IgG or Fab) VH: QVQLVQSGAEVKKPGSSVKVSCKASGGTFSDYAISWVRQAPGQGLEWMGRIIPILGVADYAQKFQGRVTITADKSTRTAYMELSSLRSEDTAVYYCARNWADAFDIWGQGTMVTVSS VL: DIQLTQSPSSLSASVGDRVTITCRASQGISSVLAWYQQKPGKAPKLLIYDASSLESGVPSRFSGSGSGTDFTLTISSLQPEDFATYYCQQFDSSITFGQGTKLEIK
Mean % WT Binding (% WT binding): 82

binder: Refmab #1 (antibody, V domains shown, The alanine scan used IgG or Fab; also called hP67.6) VH: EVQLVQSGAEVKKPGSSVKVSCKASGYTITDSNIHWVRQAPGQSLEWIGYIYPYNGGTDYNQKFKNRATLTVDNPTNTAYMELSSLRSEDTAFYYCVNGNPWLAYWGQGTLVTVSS VL: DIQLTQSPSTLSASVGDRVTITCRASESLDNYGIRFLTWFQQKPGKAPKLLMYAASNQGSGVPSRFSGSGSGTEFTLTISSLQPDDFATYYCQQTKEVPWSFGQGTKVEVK
Mean % WT Binding (% WT binding): 107

Attention now turns to another entry.
Give the value of Mean % WT Binding reported for the following: Refmab #4 (antibody, V domains shown, The alanine scan used IgG or Fab) VH: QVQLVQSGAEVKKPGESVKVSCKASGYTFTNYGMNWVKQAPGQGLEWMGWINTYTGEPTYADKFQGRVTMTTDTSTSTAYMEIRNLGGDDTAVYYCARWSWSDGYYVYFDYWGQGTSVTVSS VL: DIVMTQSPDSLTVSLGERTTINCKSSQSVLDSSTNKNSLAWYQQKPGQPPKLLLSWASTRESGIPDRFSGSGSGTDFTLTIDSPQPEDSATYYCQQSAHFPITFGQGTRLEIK 97.9

Reference for the values: patent US20260242735A1
